Listed here are binders together with their documented Bmax (OD values).
- subject_of_test: T1, cynomolgus galectin-10-His, WGS isoform (cynomolgus)
- T1 construct: not shown: His tag
- T1 chain: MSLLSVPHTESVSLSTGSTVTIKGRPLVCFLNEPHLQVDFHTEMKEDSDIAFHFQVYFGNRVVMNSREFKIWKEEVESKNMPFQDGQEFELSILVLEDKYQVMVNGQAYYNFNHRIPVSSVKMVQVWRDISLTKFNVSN
- experiment_notes: ELISA, Gal10-His coated at 1 ug/mL, VHH titrated, anti-Myc-HRP
Provide the reading as a plain figure in OD.

Illustrative cases are given below, each with its answer.
INSERT INTO measurements (binder, measurement_type, measured_value) VALUES
  ('VHH clone 13C07 (VHH, Purified VHH-Myc-His from E. coli; not shown: Myc and His tags of the phagemid vector) VHH: QLQVVESGGGLVQAGGSLRLSCAASSSAYSMAWFRQAPGKEREFVAAITWSGGSHHDDSVKGRFTISRDGAKNTVYLQMNSLKPEDTAVYYCAVGTLYSFSYRDYDYWGQGTQVTVSS', 'Bmax (OD values)', 2.9),
  ('VHH clone 14E02 (VHH, Purified VHH-Myc-His from E. coli; not shown: Myc and His tags of the phagemid vector) VHH: QVQLVESGGGLAQAGGSLRLSCVASGRAAGTYSMAWFRQAPGKEREFVAAITWAGGYTYGADSEKGRFTISRDNAKNTVYLQMNSLKPEDTAVYSCAGGRLFTSQSSAYQYWGQGTQVTVSS', 'Bmax (OD values)', 1.8);

Q: Any idea what its Bmax (OD values) is? The binder is VHH clone 13A05 (VHH, Purified VHH-Myc-His from E. coli; not shown: Myc and His tags of the phagemid vector) VHH: QVQLVESGGGLVQAGGSLRLSCAASSSSYSMSWFRQAPGKEREFVAIISWSGGTYYDDSVKGRFTVSRDNAKNTVYLQMNSLKPEDTAVYYCAAGTQFSFSYREYDYWGQGTQVTVSS
Ans: 2.7

Q: Moving on to VHH clone 13C06 (VHH, Purified VHH-Myc-His from E. coli; not shown: Myc and His tags of the phagemid vector) VHH: QLQLVESGGGLVQAGGSLRLSCAASSSSYSMGWFRQAPGKEREFVATISWSGGFYYDDSVKGRFTVSRDNAKNTVYLQMNSLKPEDTAVYYCAAGTRFSFSYREYHYWGQGTQVTVSS
Ans: 2.9
